experimental.system: HIV-1 integrase (Human immunodeficiency virus type 1 group M subtype B)
test.method.notes: biochemical
Type: biochemical
experimental.context: Table 7; 3′-processing; read-out: IC50 (μM) 3′-P
Label key: y means IC50 under 10 µM; n means IC50 of 10 µM or more.

Worked cases, answers included:
Nc1c(C(=O)NCc2ccc(F)cc2F)c(=O)n(O)c2ncc(CCCCCCCCO)cc12    n
COC(=O)CCc1cnc2c(c1)c(N)c(C(=O)NCc1ccc(F)cc1F)c(=O)n2O    y
COC(=O)CCc1cnc2c(c1)c(NCCO)c(C(=O)NCc1ccc(F)cc1F)c(=O)n2O    y
Nc1c(C(=O)NCc2ccc(F)cc2F)c(=O)n(O)c2ncc(CCCC3CCCCC3)cc12    n
COC(=O)CNc1c(C(=O)NCc2ccc(F)cc2F)c(=O)n(O)c2ncc(CCCCCO)cc12    y
CC(=O)OCCCc1cnc2c(c1)c(N)c(C(=O)NCc1ccc(F)cc1F)c(=O)n2O    n
CN(C)CCCc1cnc2c(c1)c(N)c(C(=O)NCc1ccc(F)cc1F)c(=O)n2O    y
Nc1c(C(=O)NCc2ccc(F)cc2F)c(=O)n(O)c2ncc(CCCCCO)cc12    y

Just wondering, is IC50 of `Nc1c(C(=O)NCc2ccc(F)cc2F)c(=O)n(O)c2ncccc12` below 10 µM? y

---

experimental.system: HIV-1 integrase (Human immunodeficiency virus type 1 group M subtype B)
test.method.notes: biochemical
Type: biochemical
experimental.context: Table 4; strand transfer; read-out: IC50 (Strand Transfer)
The following compounds are shown together with reported pIC50 values.
Expect pIC50 as a plain number equal to -log10 of the molar concentration.

O=C(NCc1ccc(F)cc1F)c1c(NCCCCc2ccccc2)c2cccnc2n(O)c1=O    6.55
Nc1c(C(=O)NCc2ccc(F)cc2F)c(=O)n(O)c2nc(N3CCOCC3)ccc12    4.27
COC(=O)CNc1c(C(=O)NCc2ccc(F)cc2F)c(=O)n(O)c2ncccc12    7.68

So what does the record say about pIC50 for `Nc1ccc(-c2ccc(Nc3c(C(=O)NCc4ccc(F)cc4F)c(=O)n(O)c4ncccc34)cc2)cc1` ? 6.89

So what does the record say about pIC50 for `O=C(NCc1ccc(F)cc1F)c1c(Nc2ccc(-c3ccccc3)cc2)c2cccnc2n(O)c1=O` ? 6.47

---

Test system: HIV-1 constructs containing mutant IN R263K
test.method.notes: Single-round HIV-1 infectivity assay, IN mutant R263K
Format: cell-based
experimental.context: Human immunodeficiency virus 1; Table 6; read-out: EC50 (nM, IN Mutants) R263K
Label key: t means EC50 under 30 nM; f means EC50 of 30 nM or more.

Worked cases, answers included:
Nc1c(C(=O)NCc2ccc(F)cc2F)c(=O)n(O)c2ncccc12    t
CC(=O)OCCNc1c(C(=O)NCc2ccc(F)cc2F)c(=O)n(O)c2ncccc12    t
O=C(NCc1ccc(F)cc1F)c1c(O)c2cccnc2n(O)c1=O    f
O=C(NCc1ccc(F)cc1F)c1c(NCCO)c2cccnc2n(O)c1=O    t

Then this compound:
Just wondering, is EC50 of `COC(=O)CNc1c(C(=O)NCc2ccc(F)cc2F)c(=O)n(O)c2ncccc12` below 30 nM? t

---

Test system: human osteosarcoma (HOS) cells
test.method.notes: in vitro
Type: cell-based
experimental.context: Table 3; 50% reduction in the level of ATP in HOS cells
quantity.name: CC50
Hi, when you answer, please include the unit after the number. Thanks!

So what does the record say about CC50 for O=C(NCc1ccc(F)cc1F)c1c(NCCCCc2ccccc2)c2cccnc2n(O)c1=O [XZ383] ? 102 µM

---

test.method.notes: in vitro
Type: cell-based, human
experimental.context: human, Table 3; 50% reduction in the level of ATP in HOS cells
quantity.name: CC50

Record excerpt, results attached:
CN(C)c1c(C(=O)NCc2ccc(F)cc2F)c(=O)n(O)c2ncccc12    13 µM
Nc1c(C(=O)NCc2ccc(F)cc2F)c(=O)n(O)c2ncccc12    > 250 µM
O=C(NCc1ccc(F)cc1F)c1cc2cccnc2n(O)c1=O    > 250 µM

So what does the record say about CC50 for `COC(=O)[C@@H](C)Nc1c(C(=O)NCc2ccc(F)cc2F)c(=O)n(O)c2ncccc12` ? > 250 µM

So what does the record say about CC50 for `O=C(NCc1ccc(F)cc1F)c1c(NCCc2ccccc2)c2cccnc2n(O)c1=O` ? > 250 µM

So what does the record say about CC50 for `O=C(NCc1ccc(F)cc1F)c1c(NC2CCCCCC2)c2cccnc2n(O)c1=O` ? 68.7 µM

So what does the record say about CC50 for `NCc1ccc(-c2ccc(Nc3c(C(=O)NCc4ccc(F)cc4F)c(=O)n(O)c4ncccc34)cc2)cc1` ? 0.414 µM

---

The following molecules are shown together with reported CC50 values.
test.method.notes: in vitro
Assay type: cell-based, human
experimental.context: human, Table 6; 50% reduction in the level of ATP in HOS cells

Record excerpt, results attached:
Cc1nnc(C(=O)NC(C)(C)c2nc(C(=O)NCc3ccc(F)cc3)c(O)c(=O)n2C)o1 [RAL, raltegravir, reference compound]    > 100 µM
CC(=O)OCCNc1c(C(=O)NCc2ccc(F)cc2F)c(=O)n(O)c2ncccc12 [XZ402]    > 250 µM
O=C(NCc1ccc(F)cc1F)c1c(NCCO)c2cccnc2n(O)c1=O [XZ378]    23.5 µM
Nc1c(C(=O)NCc2ccc(F)cc2F)c(=O)n(O)c2ncccc12 [XZ384]    > 250 µM
O=C(NCc1ccc(F)cc1F)c1c(O)c2cccnc2n(O)c1=O [XZ351]    137 µM

So what does the record say about CC50 for COC(=O)CNc1c(C(=O)NCc2ccc(F)cc2F)c(=O)n(O)c2ncccc12 [XZ379] ? > 250 µM

---

System: HIV-1 constructs containing wild-type IN
test.method.notes: microbe, parasite or virus in culture
Type: cell-based
The following molecules are shown together with reported Si (selectivity index) values.

O=C(NCc1ccc(F)c(F)c1)c1cc2cccnc2n(O)c1=O    >4,058
O=C(NCc1ccc(F)cc1F)c1c(Nc2ccccc2)c2cccnc2n(O)c1=O    >17,857
O=C(NCc1ccc(F)cc1F)c1cc2cccnc2n(O)c1=O    >25,000
O=C(NCc1ccc(F)c(Cl)c1)c1cc2cccnc2n(O)c1=O    >6,667

So what does the record say about Si (selectivity index) for `O=C(NCc1ccc(F)c(F)c1)c1c(O)c2cccnc2n(O)c1=O` ? 9,585

So what does the record say about Si (selectivity index) for `O=C(NCc1ccc(F)c(Cl)c1)c1c(O)c2cccnc2n(O)c1=O` ? 2,920

So what does the record say about Si (selectivity index) for `O=C(NCc1ccc(F)cc1F)c1c(O)c2cccnc2n(O)c1=O` ? 22,032

---

experimental.system: HIV-1 integrase (Human immunodeficiency virus type 1 group M subtype B, UniProt P12497)
test.method.notes: biochemical
Format: biochemical
experimental.context: Table 1; 3′-processing; read-out: IC50 Values 3′-Processing
Protocol: In Vitro Integrase Assay. Integrase reactions were carried out by adding drugs or an equivalent volume of 100% dimethyl sulfoxide (DMSO; used as the drug solvent) to a mixture of 20 nM DNA and 400 nM integrase in 50 mM morpholinepropanesulfonic acid (pH 7.2), 7.5 mM MgCl2, and 14 mM 2-mercaptoethanol. […]
pIC50: −log10 of the molar value.
pIC50 vs 4: at or above is Condition met, below is Condition not met.

Worked cases, answers included:
O=C(NCc1ccc(F)c(Cl)c1)c1cc2cccc(O)c2n(O)c1=O [XZ374]    Condition met
O=C(NCc1ccc(F)cc1F)c1cc2ccccc2n(O)c1=O [XZ353]    Condition not met
COc1cccc2cc(C(=O)NCc3ccc(F)cc3F)c(=O)n(O)c12 [XZ370]    Condition not met
O=C(NCc1ccc(F)cc1F)c1cc2cccnc2n(O)c1=O [XZ390]    Condition met
O=C(NCc1ccc(F)c(F)c1)c1cc2cccnc2n(O)c1=O [XZ392]    Condition met

Confirm if pIC50 reported for the compound O=C(NCc1ccc(F)c(F)c1)c1cc2cccc(O)c2n(O)c1=O [XZ375] is 4 or above. Condition met

Confirm if pIC50 reported for the compound O=C(NCc1ccc(F)cc1)c1c(O)c2cccnc2[nH]c1=O [XZ364] is 4 or above. Condition not met

Confirm if pIC50 reported for the compound O=C(NCc1ccc(F)cc1F)c1c(O)c2cccnc2[nH]c1=O [XZ352] is 4 or above. Condition not met

---

The following molecules are shown together with reported EC50 values.
Tested on: HIV-1 constructs containing mutant IN H51Y/R263K
test.method.notes: Single-round HIV-1 infectivity assay, IN double mutant H51Y/R263K
Assay type: cell-based
experimental.context: Human immunodeficiency virus 1; Table 8; read-out: EC50 (nM, IN mutants) H51Y/R263K
Respond with the bare value in nM.

Record excerpt, results attached:
O=C(NCc1ccc(F)cc1F)c1c(O)c2c(CO)ccnc2n(O)c1=O [XZ440]    9
COC(=O)CCc1cnc2c(c1)c(NCCO)c(C(=O)NCc1ccc(F)cc1F)c(=O)n2O [XZ438]    2.5

So what does the record say about EC50 for CC(=O)OCCCc1cnc2c(c1)c(N)c(C(=O)NCc1ccc(F)cc1F)c(=O)n2O [XZ424] ? 3.9

So what does the record say about EC50 for COC(=O)CCc1cnc2c(c1)c(N)c(C(=O)NCc1ccc(F)cc1F)c(=O)n2O [XZ434] ? 2.4

So what does the record say about EC50 for O=C(NCc1ccc(F)cc1F)c1c(NCCO)c2cc(CCCCCO)cnc2n(O)c1=O [XZ437] ? 30.9

So what does the record say about EC50 for Nc1c(C(=O)NCc2ccc(F)cc2F)c(=O)n(O)c2ncc(CCCCCCCCO)cc12 [XZ433] ? 22.4

So what does the record say about EC50 for C[C@@H]1CCO[C@H]2Cn3cc(C(=O)NCc4ccc(F)cc4F)c(=O)c(O)c3C(=O)N12 [DTG, dolutegravir, reference compound] ? 16

So what does the record say about EC50 for Cc1nnc(C(=O)NC(C)(C)c2nc(C(=O)NCc3ccc(F)cc3)c(O)c(=O)n2C)o1 [RAL, raltegravir, reference compound] ? 6

Cited source for all entries: patent US9676771B2
